// reported IC50 for each item listed
TESTED TARGET: DCN1 (DCUND1) protein PONY domain (Homo sapiens (Human), UniProt Q96GG9)
Sequence (Q96GG9 60-248): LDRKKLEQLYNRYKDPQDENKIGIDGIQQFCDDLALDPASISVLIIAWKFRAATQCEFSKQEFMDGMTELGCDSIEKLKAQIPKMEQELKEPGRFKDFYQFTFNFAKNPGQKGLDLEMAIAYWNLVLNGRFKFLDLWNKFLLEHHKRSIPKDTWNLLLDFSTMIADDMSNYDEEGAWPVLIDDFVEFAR
PROTOCOL DESCRIPTION: TR-FRET assay, DCN1 binding with FAM-labeled probe
COND: 24 hr after treatment with compound; read-out: TR FRET IC50 24 hr
PROPERTY NAME: IC50

CN1C(=O)[C@H](NC(=O)c2cccc(C(F)(F)F)c2)[C@H](C2CC2)c2c(C(=O)N3[C@H](C#N)C[C@H]4C[C@H]43)nn(C3CCOCC3)c21 (relative stereo)    1000 to 3000 nM
CCN1C(=O)[C@@H](NC(=O)c2cccc(C(F)(F)F)c2)[C@@H](C2CC2)c2c(C(=O)N3CS(=O)(=O)C[C@H]3C#N)nn(-c3ccccc3)c21    ≤ 200 nM
C=C(CN(C)C1COC1)C(=O)NCc1nn(-c2ccccc2)c2c1[C@@H](c1ccc(F)cc1)[C@H](NC(=O)c1cccc(C(F)(F)F)c1)C(=O)N2CC (racemic)    ≤ 200 nM
CCN1C(=O)[C@@H](NC(=O)c2cccc(C(F)(F)F)c2)[C@@H](c2ccc(F)cc2)c2c(C(=O)N(CC#N)CCN3CC4CC(C3)O4)nn(-c3ccccc3)c21 (mixture of isomers)    ≤ 200 nM
